Where do these numbers come from? They come from the supplement of paper PMC10065799.

measured on: FGFR3 (UniProt P22607)
Sequence (P22607 whole entry, looked up): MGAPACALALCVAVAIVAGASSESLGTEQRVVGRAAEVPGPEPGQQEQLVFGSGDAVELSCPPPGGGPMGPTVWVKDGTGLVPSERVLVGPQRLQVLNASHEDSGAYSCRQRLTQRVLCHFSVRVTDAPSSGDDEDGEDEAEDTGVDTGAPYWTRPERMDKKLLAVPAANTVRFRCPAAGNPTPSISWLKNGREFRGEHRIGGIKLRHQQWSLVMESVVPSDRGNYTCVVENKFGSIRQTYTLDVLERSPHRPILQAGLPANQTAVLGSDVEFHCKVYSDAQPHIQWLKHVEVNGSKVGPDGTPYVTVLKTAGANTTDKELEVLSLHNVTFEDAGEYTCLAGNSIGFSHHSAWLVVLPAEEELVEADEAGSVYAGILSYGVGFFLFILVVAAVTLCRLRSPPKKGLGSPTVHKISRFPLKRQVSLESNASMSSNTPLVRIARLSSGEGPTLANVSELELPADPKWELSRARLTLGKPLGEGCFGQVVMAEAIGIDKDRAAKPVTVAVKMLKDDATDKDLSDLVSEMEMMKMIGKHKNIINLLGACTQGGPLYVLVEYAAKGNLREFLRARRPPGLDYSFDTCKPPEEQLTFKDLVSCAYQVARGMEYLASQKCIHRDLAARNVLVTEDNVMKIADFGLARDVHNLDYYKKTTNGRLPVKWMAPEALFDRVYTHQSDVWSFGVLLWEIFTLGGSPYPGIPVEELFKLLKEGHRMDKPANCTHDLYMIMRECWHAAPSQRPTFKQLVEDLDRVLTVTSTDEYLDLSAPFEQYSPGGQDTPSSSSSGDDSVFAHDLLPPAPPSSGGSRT
experimental protocol: phosphorylation enrichment, bacterial display (enrichment ratio); higher = better substrate or ligand; peptides without Tyr show the background;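 note: 11-residue human phosphosite peptides and single-mutation variants displayed on the E. coli surface, counted by deep sequencing, each peptide's frequency after selection divided by its frequency in the unselected input library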;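 note: frequency after pTyr selection over input frequency; kinase dosed for 20-30% of maximal phosphorylation in three min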
metric name: phosphorylation enrichment
Answers are plain numbers.

Please review the following examples before continuing.
[[record]]
biosequence = "QGFDTYFGFLL [ARSB_Y165_R160Q_YF]"
measured_on = "FGFR3 (UniProt P22607)"
metric_name = "phosphorylation enrichment"
quantitative_readout = 5.31

[[record]]
biosequence = "KRLDGYVLEGW [IGSF9_Y656_R661W]"
measured_on = "FGFR3 (UniProt P22607)"
metric_name = "phosphorylation enrichment"
quantitative_readout = 0.511

[[record]]
biosequence = "QYRFIYMAVQH [PTPN11_Y515]"
measured_on = "FGFR3 (UniProt P22607)"
metric_name = "phosphorylation enrichment"
quantitative_readout = 1.48

[[record]]
biosequence = "RLLRGYNQSAY [HLA-C_Y137_D138N]"
measured_on = "FGFR3 (UniProt P22607)"
metric_name = "phosphorylation enrichment"
quantitative_readout = 0.499

[[record]]
biosequence = "TEGNGYISFNE [LCP1_Y28_D24E]"
measured_on = "FGFR3 (UniProt P22607)"
metric_name = "phosphorylation enrichment"
quantitative_readout = 0.636


Batch of 6 sequences: report phosphorylation enrichment for each.
1. PLDGEHFTLQI [TP53_Y327_Y327H]
2. DFTSRYLNASD [PKHD1_Y828]
3. RGEKQYLATPL [ALOX12_Y295_A298T]
4. SRIWVYNHFRW [BRCA2_Y2621_YF]
5. EGGFAYVPLKD [PRIM2_Y208_D204G]
6. ESMLRYEVYGG [STOX1_Y607]

# output
1. 0.885
2. 0.572
3. 0.711
4. 0.78
5. 0.497
6. 0.702

Batch of 5 sequences: report phosphorylation enrichment for each.
1. RCKNHYAAFSV [C1QTNF1_Y145_S143N]
2. SVKVYYKKCWF [EPHA7_Y202_S207F]
3. FDNPVYQKTTE [LDLR_Y828]
4. RFMELYDLNRD [BBS2_Y648_YF]
5. GSTLSYGRDGR [MATR3_Y158_P154S]

# output
[0.56, 0.596, 0.498, 0.883, 0.466]

Batch of 7 sequences: report phosphorylation enrichment for each.
1. LIQRNYKLTAQ [ALPK2_Y1975_A1978T]
2. QMQNPYSSHSS [MUC13_Y501_R503S]
3. NRLTDYYELLL [BBS10_Y536_P539L]
4. LLREWYLQDPY [SIX3_Y225]
5. DENCFYTRAAS [RPS19_Y54_W52C]
6. WAFNLYDINKF [KCNIP3_Y174_D179Y_YF]
7. RILENYGADID [DNAH5_Y596_L591R]

# output
1: 0.511; 2: 0.611; 3: 10.1; 4: 1.12; 5: 0.728; 6: 0.669; 7: 0.695

Batch of 8 sequences: report phosphorylation enrichment for each.
1. VDSTEYEVASQ [SLC7A7_Y7]
2. EEEYEYMNRRR [ERBB3_Y1199_D1194E]
3. EDKSIYRRGAR [PRKCI_Y125]
4. SSVKPYRVFCD [FGB_Y266_YF]
5. NIRKKYYRAIL [CHD7_Y1217_Q1214R]
6. LSIDRYHAIVY [NPSR1_Y147]
7. HGDDDYDDPEL [CLNK_Y69_S65G]
8. EKAEVYRSENE [RIOK2_Y348_G349R]

# output
1: 0.776; 2: 0.583; 3: 0.696; 4: 0.552; 5: 0.341; 6: 1.87; 7: 1.02; 8: 0.724
